B1: TPR 5TU (parent)
chain: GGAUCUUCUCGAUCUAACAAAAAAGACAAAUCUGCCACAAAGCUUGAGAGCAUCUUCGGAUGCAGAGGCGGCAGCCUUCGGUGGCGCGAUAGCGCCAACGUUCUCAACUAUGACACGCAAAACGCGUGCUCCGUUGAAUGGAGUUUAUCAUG

Variants of: B1
assay.remarks: polymerase ribozyme fitness, log enrichment relative to wild type (log ratio); higher = more active; in vitro selection for triplet polymerase activity
Fewer inactive variants are shown than the library holds.
Decide using polymerase ribozyme fitness (log ratio): a value greater than or equal to -2 is yes (1), a smaller one is no (0).

Answered cases to consult:
mutations: G34A G58A U90A G94A U109G
answer.label: no (0)
//
mutations: C38U C76G
answer.label: no (0)
//
mutations: G50A G92A A106G
answer.label: no (0)
//
mutations: U4G C35U G83C G124U U146C
answer.label: no (0)
//
mutations: C14G C85A C116U A122C
answer.label: no (0)

Does the reported polymerase ribozyme fitness (log ratio) for G25C U56G G84A A89G U130C fall at or above the -2 mark?
no (0)

Does the reported polymerase ribozyme fitness (log ratio) for G133A G141U fall at or above the -2 mark?
no (0)

Does the reported polymerase ribozyme fitness (log ratio) for C5U C54G fall at or above the -2 mark?
yes (1)

Does the reported polymerase ribozyme fitness (log ratio) for C75U C85U fall at or above the -2 mark?
yes (1)

Does the reported polymerase ribozyme fitness (log ratio) for U7C C18G G86A U148A fall at or above the -2 mark?
no (0)

Does the reported polymerase ribozyme fitness (log ratio) for C85U U104G fall at or above the -2 mark?
yes (1)
